Values were extracted from the supplement of paper PMC10567573.

// protein stability index lookup, one value per entry
B1: ZNF511 (parent)
chain: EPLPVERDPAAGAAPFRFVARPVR

Variants of: B1
Assay: protein stability index of a GFP-peptide fusion (GPS, HEK-293T) (PSI 1-6); higher = more stable;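 note: lentivirally expressed fusions sorted by FACS into six bins by GFP to DsRed ratio, PSI derived from sequencing read proportions per bin multiplied by bin number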
Details: c terminus: a fixed tail appended
MEASURED_METRIC: protein stability index

> print(dat)
    variant.key  value.measured
 1          L3I            2.45
 2         P22Y            2.32
 3          D8S            2.36
 4         F18C            4.59
 5         A14H            2.53
 6         A11P            2.68
 7         R21T            2.57
 8          V5S            2.56
 9         F18K            4.87
10          D8V             2.4
11         V23G            2.25
12         V23K            2.01
13          P2I            2.12
14         V23N            2.13
15         V19D            4.67
16         G12L             2.4
17         A10T            2.15
18          P4E            2.43
19         V19G            5.14
20         P15Q            3.78
21         A10P            2.41
22         V19Y            4.31
23         A11Y            1.88
24          V5L            2.23
25          R7N            2.32
26         A11K            2.34
27          V5A            2.18
28         A20P             2.2
29         A14W            2.47
30         F18E            5.37
31         V23Y            2.07
32         F16S            4.88
33          L3W            2.64
34         V23I               3
35         P15G            3.84
36          E6D            1.68
37          D8Y            2.63
38          E6C            3.25
39         A14E            4.11
40         R24K            2.04
41          V5N            2.82
42          E1C            2.64
43          V5Y             2.1
44         F16E            5.25
45         P15L            3.68
46          P4T             2.8
47         A13R            2.34
48          P9Y            2.12
49         A11W            1.98
50         F16K            4.67
51          L3E            2.97
52         R21L            2.07
53         R17T            4.19
54          P2D            2.55
55         A11H            2.61
56         F18L            4.49
57          P9R            1.54
58          P2M             2.3
59         P22S            2.51
60          L3C            2.16
61          R7L            2.82
62          P4D             2.9
63          P9V            1.92
64          L3Q            2.64
65         A14N            2.69
66         A10K            1.72
67          E6N             2.5
68         V19E            4.57
69          P4Q            1.99
70         R17V            4.21
71         R21N            1.59
72         A20Q             2.4
73         G12C            2.79
74         V19Q            2.99
75         F16P            5.26
76         A20V            2.46
77         P22Q            2.02
78         V19N            4.36
79         P22G            1.85
80          E1M            2.38
81          E1I            2.12
82          D8I            2.91
83          P9N            2.24
84         A20H            2.81
